# Growth Rate listing for each entry below
Tested on: HEK-293T
EXPERIMENTAL_DETAILS: Incucyte cell viability with HEK293T; further: unitless GR value; below 1 slowed growth and below 0 cell loss
Assay type: toxicity, cell-based
CONDITION: human, 18 h, 10 µM, compound concentration 10 uM, replicate number 2
Give a plain numeric answer without units written out.

Here is how some molecules turned out for Growth Rate.
INSERT INTO results (molecule, experimental_system, reported_value) VALUES
  ('O=C(Nc1cc(C(F)(F)F)cc(C(F)(F)F)c1)c1cc(Cl)ccc1O', 'HEK-293T', 0.17),
  ('COc1ncc2cc(C(=O)Nc3cc(C(=O)NCc4cccc(Cl)c4)ccc3Cl)c(=O)[nH]c2n1', 'HEK-293T', 0.64),
  ('CCCc1c(OCCCOc2ccc(OCC(=O)O)cc2)ccc(C(C)=O)c1O', 'HEK-293T', 0.97);

Let me know recorded Growth Rate for "Cc1cc(C)cc(C(=O)NOCCCCCC(=O)NO)c1" , thanks.
0.44

Let me know recorded Growth Rate for "O=C(O)CCCc1cc2cc(Cl)ccc2n1S(=O)(=O)c1ccc2ncsc2c1" , thanks.
0.59

* * *

System: HEK-293T
EXPERIMENTAL_DETAILS: Incucyte cell viability with HEK293T; further: unitless GR value; below 1 slowed growth and below 0 cell loss
Format: toxicity, cell-based
CONDITION: human, 18 h, 10 µM, compound concentration 10 uM, replicate number 1
MEASUREMENT_NAME: Growth Rate

Here is how some compounds turned out for Growth Rate.
INSERT INTO results (compound, reported_value) VALUES
  ('COCCc1ccc(-c2c(C)nc3c(N4CCOCC4)ccnn23)cn1', 0.91),
  ('CCOP(=O)(OCC)C(=Cc1cc(C(C)(C)C)c(O)c(C(C)(C)C)c1)P(=O)(OCC)OCC', 0.94),
  ('CC(=O)N1CCN(c2ccc(OCC3COC(Cn4ccnc4)(c4ccc(Cl)cc4Cl)O3)cc2)CC1 (centres undefined)', 0.34),
  ('Cn1cc(-c2ccc3occ(-c4cccc(-c5ccncc5)c4)c3n2)cn1', -0.15),
  ('O=c1c(Br)ccc2n1C[C@@H]1CNC[C@H]2C1', 0.61);

Let me know recorded Growth Rate for "Cc1cc(=O)oc2cc(NC(=O)[C@H](Cc3ccc(I)cc3)NC(=O)[C@H]3N[C@@H]4CC[C@H]3C4)ccc12.O=C(O)C(F)(F)F" , thanks.
0.61

Let me know recorded Growth Rate for "CC(C)c1ccc(/C=N/NC(=O)c2ccc(O)cc2)cc1" , thanks.
0.85

Let me know recorded Growth Rate for "N[C@H](C(=O)O)[C@@H]1CC(Cl)=NO1" , thanks.
0.51

Let me know recorded Growth Rate for "c1ccc(C(OC2CCN(CCCc3nnn[nH]3)CC2)c2ccccc2)cc1" , thanks.
0.57

* * *

System: HEK-293T
EXPERIMENTAL_DETAILS: Incucyte cell viability with HEK293T; further: unitless GR value; below 1 slowed growth and below 0 cell loss
Type: toxicity, cell-based
CONDITION: human, 12 h, 10 µM, compound concentration 10 uM, replicate number 2
# Growth Rate listing for each entry below
Give a plain numeric answer without units written out.

Here is how some compounds turned out for Growth Rate.
INSERT INTO assay_data (compound, reported_value) VALUES
  ('c1ccc2nc(N3CCNCC3)ccc2c1', 0.95),
  ('Oc1c(CN2CCCC2)cc(COCc2ccccc2)c2cccnc12', -0.05),
  ('O=C(NNC(=O)c1ccc(CNS(=O)(=O)c2ccc(F)c(Cl)c2)cc1)c1ccccc1', 0.64),
  ('CC[C@H](CO)Nc1nc(Nc2cccc(-c3ccccn3)c2)c2ncn(C(C)C)c2n1.Cl.O', -0.31);

Let me know recorded Growth Rate for "CC(C)(O)c1cn(-c2ccc(-c3cccc(S(C)(=O)=O)c3)cc2)c(C(C)(C)c2ccccc2Cl)n1" , thanks.
0.93

Let me know recorded Growth Rate for "CCc1nc(C2CCC2)n2nc(-c3ccccc3)[nH]c(=O)c12" , thanks.
0.76

Let me know recorded Growth Rate for "O=C(Nc1ccccc1Br)N[C@@H]1CCN(c2ccc(C(F)(F)F)cn2)C1" , thanks.
-0.08

Let me know recorded Growth Rate for COc1cc(N)c(Cl)cc1C(=O)NC1CN2CCC1CC2.Cl (stereo not drawn) , thanks.
0.19

Let me know recorded Growth Rate for "O=C(Nc1cccc(Nc2nccc(Nc3cccc(C(F)(F)F)c3)n2)c1)C1CC1" , thanks.
-0.79

Let me know recorded Growth Rate for "CCOC(=O)/N=C(\N)c1ccc(OCc2cccc(COc3ccc(C(C)(C)c4ccc(OC(=O)OCC)cc4)cc3)c2)cc1" , thanks.
-0.1

Let me know recorded Growth Rate for "CCOC(=O)c1ncn2c1[C@@H]1CCCN1C(=O)c1cc(OC)ccc1-2" , thanks.
0.89

* * *

System: U2OS
EXPERIMENTAL_DETAILS: Incucyte cell viability with U2OS; further: unitless GR value; below 1 slowed growth and below 0 cell loss
Type: toxicity, cell-based
CONDITION: human, 6 h, 10 µM, compound concentration 10 uM, replicate number 1
MEASUREMENT_NAME: Growth Rate
Give a plain numeric answer without units written out.

Here is how some molecules turned out for Growth Rate.
INSERT INTO measurements (molecule, reported_value) VALUES
  ('COc1cc(N[C@@H]2CCCC[C@]2(O)C(F)(F)F)ccc1F', 0.53),
  ('CCC(=O)N[C@@H]1CC[C@H](C(=O)N(C)c2ccc(-c3nc4ccccc4o3)cc2)C1', 0.62);

Let us examine a further case.
Let me know recorded Growth Rate for CN(C(=O)CCOCCOCCOCCOCCNc1cccc2c1C(=O)N(C1CCC(=O)NC1=O)C2=O)[C@H]1CC[C@@]2(C)[C@@H](CC[C@@H]3[C@@H]2CC[C@]2(C)[C@@H](c4ccc5ccncc5c4)CC[C@@H]32)C1 (stereo partly drawn) , thanks.
0.52

* * *

Test system: Fibroblast
EXPERIMENTAL_DETAILS: Incucyte cell viability with human fibroblast; further: unitless GR value; below 1 slowed growth and below 0 cell loss
Type: toxicity, cell-based
CONDITION: 24 h, 10 µM, compound concentration 10 uM, replicate number 2
Hi! Just check whether Growth Rate is below 0.8. Below gives t, equal or above gives f.

INSERT INTO results (compound, class_name) VALUES
  ('CCn1ccc(Nc2ncc3c(n2)-c2c(nn(C)c2-c2ccc(-c4cnn(C)c4)cc2Cl)CC3)n1', 't'),
  ('CCOc1ccc(S(=O)(=O)Nc2ccc(Cl)cc2C#Cc2cnc(C(=O)[O-])cc2OC)c2ncccc12.[K+]', 't'),
  ('COc1cc(C(N)=O)ccc1Nc1ncc2c(n1)N(CCC(C)C)[C@H](C)C(=O)N2C', 't');

Input "C#Cc1cnc2[nH]cc(-c3cccc4c3CCN4C(=O)[C@@H]3CCCN3C#N)c2c1" ; condition: Growth Rate strictly below 0.8. Does it hold?
t

Input COc1ccc2c(O[C@@H]3C[C@H]4C(=O)N[C@]5(C(=O)NS(=O)(=O)C6(C)CC6)CC5/C=C\CCCCC[C@H](NC(=O)c5ccn(C)n5)C(=O)N4C3)cc(OC(C)C)nc2c1C (stereo partly drawn) ; condition: Growth Rate strictly below 0.8. Does it hold?
f

Input "Cc1n[nH]c2ncc(C(=O)N3CCC[C@H]3c3ccc(Cl)cc3)cc12" ; condition: Growth Rate strictly below 0.8. Does it hold?
f

Input "COc1cc(-c2cc([C@H](O)C3CC3)n3ncnc(N)c23)ccc1CO" ; condition: Growth Rate strictly below 0.8. Does it hold?
f

* * *

Test system: HEK-293T
EXPERIMENTAL_DETAILS: Incucyte cell viability with HEK293T; further: unitless GR value; below 1 slowed growth and below 0 cell loss
Type: toxicity, cell-based
CONDITION: human, 18 h, 10 µM, compound concentration 10 uM, replicate number 1
# Growth Rate listing for each entry below
Give a plain numeric answer without units written out.

Here is how some molecules turned out for Growth Rate.
INSERT INTO assay_data (molecule, measurement_name, reported_value) VALUES
  ('CC(C)(C)OC(=O)CN1C(=O)c2c(OCC(=O)O)cccc2Oc2ccc(C(F)(F)F)cc21', 'Growth Rate', 0.76),
  ('O=C(Nc1ccc(C(O)(C(F)(F)F)C(F)(F)F)cc1)c1ccc(C(F)(F)F)cc1', 'Growth Rate', 0.04),
  ('COc1cc(-c2cc([C@H](O)C3CC3)n3ncnc(N)c23)ccc1CO', 'Growth Rate', 0.62),
  ('Cc1cn(CCN2CCN(c3ccccc3-c3cc(C#N)cc(C(=O)NCCCN4CCCC4)c3)CC2)c2ccccc12', 'Growth Rate', -0.45);

Let me know recorded Growth Rate for "Cl.Cl.N#Cc1ccc(O[C@@H]2c3ccccc3C[C@H]2N2CCC[C@@H](N)C2)c(Cl)c1" , thanks.
-0.77

Let me know recorded Growth Rate for "Cc1cc([N+](=O)[O-])c(NS(=O)(=O)c2cccc(C(=O)O)c2)cc1-c1cccnc1" , thanks.
0.65

Let me know recorded Growth Rate for "COc1ccc(-c2cc3c(C)nc(N)nc3n([C@H]3CC[C@H](OCCO)CC3)c2=O)cn1" , thanks.
-0.17

Let me know recorded Growth Rate for "CCOc1ccccc1C(=O)NCC1(N2CCN(CC)CC2)CCCCC1" , thanks.
0.24

Let me know recorded Growth Rate for "O=C(NNC(=O)c1ccc(CNS(=O)(=O)c2ccc(F)c(Cl)c2)cc1)c1ccccc1" , thanks.
0.31

Let me know recorded Growth Rate for "Cl.Cl.O=C1c2ccccc2C(Cc2ccncc2)(Cc2ccncc2)c2ccccc21" , thanks.
0.62

Let me know recorded Growth Rate for "CC[C@H](Nc1ncnc2[nH]cnc12)c1nc2cccc(F)c2c(=O)n1-c1ccccc1" , thanks.
0.31
